EC50: recorded values
experimental.system: Ras GEF SOS (Son of Sevenless) (Homo sapiens, UniProt Q07889)
Sequence (Q07889 564-1049 limits assumed): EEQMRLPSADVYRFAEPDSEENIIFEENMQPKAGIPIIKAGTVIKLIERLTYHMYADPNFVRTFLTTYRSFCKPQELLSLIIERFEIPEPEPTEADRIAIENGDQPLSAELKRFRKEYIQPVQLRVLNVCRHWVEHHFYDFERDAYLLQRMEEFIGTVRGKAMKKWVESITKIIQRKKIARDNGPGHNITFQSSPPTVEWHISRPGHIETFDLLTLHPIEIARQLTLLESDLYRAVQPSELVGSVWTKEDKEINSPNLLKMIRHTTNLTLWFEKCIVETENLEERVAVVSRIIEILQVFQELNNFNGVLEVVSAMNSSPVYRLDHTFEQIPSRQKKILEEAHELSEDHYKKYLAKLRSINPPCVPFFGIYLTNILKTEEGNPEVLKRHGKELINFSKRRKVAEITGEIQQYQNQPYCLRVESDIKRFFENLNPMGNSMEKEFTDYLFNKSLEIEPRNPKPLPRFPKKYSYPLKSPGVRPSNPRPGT
Sequence (P01112 1-166 partner limits assumed): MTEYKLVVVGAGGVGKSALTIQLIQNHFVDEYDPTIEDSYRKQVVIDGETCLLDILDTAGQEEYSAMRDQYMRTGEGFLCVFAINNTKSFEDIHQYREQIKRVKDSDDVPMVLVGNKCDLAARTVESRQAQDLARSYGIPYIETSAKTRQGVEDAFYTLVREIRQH
experimental.protocol: SOS-mediated nucleotide exchange on Ras (BODIPY-GDP fluorescence)
conditions: SOS-mediated exchange of BODIPY-GDP for GTP on Ras
Structures can show the parent of a compound that is named as a salt.

- compound: "COc1ccc(-c2c(C)c(C)cc3c2nc(N2CCNCC2)n3Cc2ccc(F)c(Cl)c2)cc1OC [Example 110]"
  EC50: "1 to 5 µM"
- compound: "C=C[C@H](N)c1cc(Cl)cc2c1nc(N1CCNCC1)n2Cc1cc(C)c(F)c(C)c1 [Example 155, trifluoroacetate]"
  EC50: "< 1 µM"
- compound: "C=Cc1cc(Cn2c(N3CCNCC3)nc3cc(C)c(C)cc32)cc(C=C)c1F [Example 46, trifluoroacetate]"
  EC50: "5 to 30 µM"
- compound: "Cc1cc2nc(N3CCNCC3)n(Cc3ccc(F)c(C(F)(F)F)c3)c2cc1C [Example 40]"
  EC50: "5 to 30 µM"
- compound: "Fc1cc(F)cc(Cn2c(N3CCOCC3)nc3ccccc32)c1 [Example 13]"
  EC50: "30 to 100 µM"
- compound: "Cc1ccccc1-c1cccc2c1nc(N1CCNCC1)n2Cc1ccc(F)c(Cl)c1 [Example 79, trifluoroacetate]"
  EC50: "1 to 5 µM"
- compound: "Cc1cc(Cn2c(NCCN)nc3c(Cl)nccc32)ccc1F [Example 223]"
  EC50: "5 to 30 µM"
- compound: "Cc1cc(Cn2c(N3CCNCC3)nc3c(OCCN4CCCC4)cccc32)ccc1F [Example 208]"
  EC50: "< 1 µM"
- compound: "Cc1ccc2c(n1)nc(NCCN)n2Cc1ccc(F)c(Cl)c1 [Example 257]"
  EC50: "5 to 30 µM"
- compound: "Cc1ccccc1-c1c(C)c(C)cc2c1nc(NCCN)n2Cc1cccc(C#N)c1 [Example 116, trifluoroacetate]"
  EC50: "1 to 5 µM"
- compound: "C=Cc1cc2c(cc1C)nc(NCCN)n2Cc1ccc(F)c(Cl)c1 [Example 65, trifluoroacetate]"
  EC50: "1 to 5 µM"
- compound: "Cc1cc2c(nc(N3CCNCC3)n2Cc2ccc(F)c(C)c2)c(CN2CCC(O)CC2)n1 [Example 238]"
  EC50: "30 to 100 µM"
- compound: "Cc1cc(Cn2c(N3CC(CN)C3)nc3ccc(OCCN(C)C)nc32)ccc1F [Example 262]"
  EC50: "30 to 100 µM"
- compound: "Fc1cc(F)cc(Cn2c(C3CCNCC3)nc3ccccc32)c1 [Example 57, trifluoroacetate]"
  EC50: "5 to 30 µM"
- compound: "Clc1ccc(Cn2c(C3CCNCC3)nc3ccccc32)cc1 [Example 58, trifluoroacetate]"
  EC50: "5 to 30 µM"
- compound: "COC(=O)c1cnn(CCN(C)C)c1-c1cc(C)cc2c1nc(N1CCNCC1)n2Cc1ccc(F)c(Cl)c1 [Example 180]"
  EC50: "< 1 µM"
- compound: "NCc1ccc2c(c1)nc(N1CCNCC1)n2Cc1ccc(F)c(Cl)c1 [Example 281]"
  EC50: "5 to 30 µM"
- compound: "Cc1cc2nc(N)n(Cc3ccc(Cl)cc3)c2cc1C [Example 5]"
  EC50: "30 to 100 µM"
- compound: "Cc1cc(Cn2c(N3CCNCC3)nc3c(-n4ccc(N)c4)cc(Cl)cc32)cc(C)c1F [Example 279]"
  EC50: "1 to 5 µM"
- compound: "Cc1cc(OC2CCOC2)c2nc(N3CCNCC3)n(Cc3cc(C)c(F)c(C)c3)c2c1 (centres unmarked) [Example 204]"
  EC50: "< 1 µM"
- compound: "Cc1cc(CNCC(C)C)c2nc(N3CCNCC3)n(Cc3cc(C)c(F)c(C)c3)c2c1 [Example 133, trifluoroacetate]"
  EC50: "1 to 5 µM"
- compound: "Cc1cc(Cn2c(N3CCNCC3)nc3c(-c4ccnn4-c4cccc5ccccc45)cc(Cl)cc32)cc(C)c1F [Example 177, trifluoroacetate]"
  EC50: "30 to 100 µM"
- compound: "Fc1ccc(Cn2c(N3CCNCC3)nc3c(-c4ccnn4-c4ccc(Br)cc4)cc(Cl)cc32)cc1Cl [Example 170, trifluoroacetate]"
  EC50: "1 to 5 µM"
